# Test system: Escherichia coli TOP10
# PROTOCOL DETAILS: shrunken log2 fold change of peptide-encoding DNA abundance (4.5 h post-induction vs induction); higher = less antimicrobial activity (less host growth inhibition)
# TEST SETTINGS: time post-induction: 4.5 h; library: site-saturation at positions 5, 18, 19, 20
Would you please tag the item y when its shrunken log2 fold change is 0.08 or above, and n when it is below?

Look over these answered cases.
{"POLYMER SEQUENCE": "RRIRFRPPRLPRPRPRPFTHPRP", "CLASS ASSIGNMENT": "n"}
{"POLYMER SEQUENCE": "RRIRSRPPRLPRPRPRPLNQPRP", "CLASS ASSIGNMENT": "y"}
{"POLYMER SEQUENCE": "RRIRDRPPRLPRPRPRPGADPRP", "CLASS ASSIGNMENT": "y"}

Task: For this sequence, is measured shrunken log2 fold change 0.08 or higher? RRIRNRPPRLPRPRPRPNRYPRP
Output: n

Task: Please check the record RRIRVRPPRLPRPRPRPDIAPRP and state if its shrunken log2 fold change is at or above 0.08.
Output: n

Task: Entry RRIRIRPPRLPRPRPRPWVTPRP : is its shrunken log2 fold change no less than 0.08?
Output: n

Task: Threshold query (shrunken log2 fold change >= 0.08) on RRIRVRPPRLPRPRPRPPTKPRP
Output: y

Task: Entry RRIRQRPPRLPRPRPRPRTPPRP : is its shrunken log2 fold change no less than 0.08?
Output: y

Task: Please check the record RRIRNRPPRLPRPRPRPDNEPRP and state if its shrunken log2 fold change is at or above 0.08.
Output: y

----------
# Tested on: Escherichia coli TOP10
# PROTOCOL DETAILS: shrunken log2 fold change of peptide-encoding DNA abundance (4.5 h post-induction vs induction); higher = less antimicrobial activity (less host growth inhibition)
# TEST SETTINGS: time post-induction: 4.5 h; library: site-saturation at positions 5, 18, 19, 20
Recorded measurements of shrunken log2 fold change, one per entry
Answer field: number only, no words.

{"POLYMER SEQUENCE": "RRIRTRPPRLPRPRPRPEFDPRP", "RESULT NUMBER": 0.214}
{"POLYMER SEQUENCE": "RRIRIRPPRLPRPRPRPYIFPRP", "RESULT NUMBER": -0.425}
{"POLYMER SEQUENCE": "RRIRLRPPRLPRPRPRPHSSPRP", "RESULT NUMBER": 0.0594}
{"POLYMER SEQUENCE": "RRIRARPPRLPRPRPRPRDAPRP", "RESULT NUMBER": 0.91}
{"POLYMER SEQUENCE": "RRIRLRPPRLPRPRPRPSWFPRP", "RESULT NUMBER": -0.237}

Task: Look up shrunken log2 fold change: RRIRRRPPRLPRPRPRPCPRPRP
Output: 0.0796

Task: Recorded shrunken log2 fold change of RRIRERPPRLPRPRPRPALWPRP , please.
Output: 0.241

Task: Look up shrunken log2 fold change for this sequence: RRIRPRPPRLPRPRPRPLDPPRP
Output: 0.201

Task: For the sequence RRIRQRPPRLPRPRPRPTEAPRP , what shrunken log2 fold change is on record?
Output: -0.0735

----------
# Test system: Escherichia coli TOP10
# PROTOCOL DETAILS: shrunken log2 fold change of peptide-encoding DNA abundance (4.5 h post-induction vs induction); higher = less antimicrobial activity (less host growth inhibition)
# TEST SETTINGS: time post-induction: 4.5 h; library: site-saturation at positions 5, 18, 19, 20
Decide by shrunken log2 fold change: equal to or exceeding 0.04 means Yes, less means No.

{"POLYMER SEQUENCE": "RRIRNRPPRLPRPRPRPERTPRP", "CLASS ASSIGNMENT": "No"}
{"POLYMER SEQUENCE": "RRIRFRPPRLPRPRPRPLARPRP", "CLASS ASSIGNMENT": "No"}
{"POLYMER SEQUENCE": "RRIRYRPPRLPRPRPRPYHIPRP", "CLASS ASSIGNMENT": "No"}
{"POLYMER SEQUENCE": "RRIRTRPPRLPRPRPRPLSQPRP", "CLASS ASSIGNMENT": "No"}
{"POLYMER SEQUENCE": "RRIRVRPPRLPRPRPRPGFHPRP", "CLASS ASSIGNMENT": "No"}
{"POLYMER SEQUENCE": "RRIRKRPPRLPRPRPRPKIDPRP", "CLASS ASSIGNMENT": "Yes"}
{"POLYMER SEQUENCE": "RRIRERPPRLPRPRPRPLPNPRP", "CLASS ASSIGNMENT": "No"}
{"POLYMER SEQUENCE": "RRIRLRPPRLPRPRPRPWCLPRP", "CLASS ASSIGNMENT": "No"}
{"POLYMER SEQUENCE": "RRIRMRPPRLPRPRPRPEIHPRP", "CLASS ASSIGNMENT": "Yes"}
{"POLYMER SEQUENCE": "RRIRKRPPRLPRPRPRPMDHPRP", "CLASS ASSIGNMENT": "Yes"}

Task: Record RRIRNRPPRLPRPRPRPRLPPRP ; criterion: shrunken log2 fold change no lower than 0.04. Met?
Output: Yes

Task: Check the entry RRIRFRPPRLPRPRPRPAPPPRP : does shrunken log2 fold change equal or exceed 0.04?
Output: Yes

Task: Identify whether the reported shrunken log2 fold change of the following sequence is 0.04 or greater: RRIRHRPPRLPRPRPRPDFTPRP
Output: No

Task: Kindly determine if shrunken log2 fold change recorded for RRIRERPPRLPRPRPRPLTCPRP is above or exactly 0.04.
Output: No

Task: Threshold query (shrunken log2 fold change >= 0.04) on RRIRIRPPRLPRPRPRPMLCPRP
Output: No

----------
Measured shrunken log2 fold change, listed per entry.
# Test system: Escherichia coli TOP10
# PROTOCOL DETAILS: shrunken log2 fold change of peptide-encoding DNA abundance (4.5 h post-induction vs induction); higher = less antimicrobial activity (less host growth inhibition)
# TEST SETTINGS: time post-induction: 4.5 h; library: site-saturation at positions 5, 18, 19, 20
Field format: numeric only.

// known answers, use as guide
{"POLYMER SEQUENCE": "RRIRPRPPRLPRPRPRPNYYPRP", "shrunken log2 fold change": -0.468}
{"POLYMER SEQUENCE": "RRIRFRPPRLPRPRPRPAWIPRP", "shrunken log2 fold change": -0.106}
{"POLYMER SEQUENCE": "RRIRSRPPRLPRPRPRPFVEPRP", "shrunken log2 fold change": -0.123}

Task: Need shrunken log2 fold change, item RRIRARPPRLPRPRPRPLDYPRP
Output: -0.25

----------
A collection of sequences and their measured shrunken log2 fold change
# Test system: Escherichia coli TOP10
# PROTOCOL DETAILS: shrunken log2 fold change of peptide-encoding DNA abundance (4.5 h post-induction vs induction); higher = less antimicrobial activity (less host growth inhibition)
# TEST SETTINGS: time post-induction: 4.5 h; library: site-saturation at positions 5, 18, 19, 20
Respond numerically, and do not add a unit to the figure.

{"POLYMER SEQUENCE": "RRIRWRPPRLPRPRPRPNATPRP", "shrunken log2 fold change": 0.736}
{"POLYMER SEQUENCE": "RRIRFRPPRLPRPRPRPYIFPRP", "shrunken log2 fold change": -0.829}
{"POLYMER SEQUENCE": "RRIRVRPPRLPRPRPRPKKTPRP", "shrunken log2 fold change": -0.0604}
{"POLYMER SEQUENCE": "RRIRGRPPRLPRPRPRPCKWPRP", "shrunken log2 fold change": -0.075}

Task: What value of measured shrunken log2 fold change is listed for RRIRMRPPRLPRPRPRPFECPRP ?
Output: 0.0161

Task: Looking for the measured shrunken log2 fold change of RRIRQRPPRLPRPRPRPQTWPRP , can you help?
Output: 0.126

Task: Requested field: shrunken log2 fold change. Item: RRIRPRPPRLPRPRPRPEMCPRP
Output: 0.291

----------
# Test system: Escherichia coli TOP10;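 further: peptides expressed intracellularly from a pBAD plasmid library in pooled LB shake-flask culture, induced with 0.3% L-arabinose, DNA abundance read by NGS, three biological replicates, DESeq2 with apeglm shrinkage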
# PROTOCOL DETAILS: shrunken log2 fold change of peptide-encoding DNA abundance (4.5 h post-induction vs induction); higher = less antimicrobial activity (less host growth inhibition)
# TEST SETTINGS: time post-induction: 4.5 h; library: site-saturation at positions 5, 18, 19, 20
The entries below are paired with their reported shrunken log2 fold change.
Enter a number only.

{"POLYMER SEQUENCE": "RRIRTRPPRLPRPRPRPKFWPRP", "RESULT NUMBER": 0.318}
{"POLYMER SEQUENCE": "RRIRKRPPRLPRPRPRPTLNPRP", "RESULT NUMBER": 0.505}
{"POLYMER SEQUENCE": "RRIRKRPPRLPRPRPRPTGKPRP", "RESULT NUMBER": 0.905}
{"POLYMER SEQUENCE": "RRIRHRPPRLPRPRPRPVWRPRP", "RESULT NUMBER": 0.0724}
{"POLYMER SEQUENCE": "RRIRQRPPRLPRPRPRPVPGPRP", "RESULT NUMBER": -0.141}

Task: Endpoint output: shrunken log2 fold change of RRIRKRPPRLPRPRPRPIPKPRP . Value?
Output: 0.499

Task: # shrunken log2 fold change lookup, item RRIRIRPPRLPRPRPRPMTFPRP
Output: -0.0432

Task: Return reported shrunken log2 fold change; argument: RRIRHRPPRLPRPRPRPQYPPRP
Output: -0.161

Task: I'd like to know its shrunken log2 fold change. The sequence in question is RRIRGRPPRLPRPRPRPDDAPRP
Output: 0.314

Task: Entry under review: RRIRVRPPRLPRPRPRPAVKPRP . Reported shrunken log2 fold change?
Output: 0.318

Task: Entry under review: RRIRVRPPRLPRPRPRPEISPRP . Reported shrunken log2 fold change?
Output: -0.122

Task: Recorded shrunken log2 fold change of RRIRVRPPRLPRPRPRPMMEPRP , please.
Output: 0.00705

Task: Fill in the blank: the reported shrunken log2 fold change of RRIRPRPPRLPRPRPRPEHPPRP is ____.
Output: 0.231

Task: Would you kindly share the measured shrunken log2 fold change for RRIRSRPPRLPRPRPRPGDAPRP ?
Output: 0.298

Task: Can you share its shrunken log2 fold change? I mean this sequence: RRIRARPPRLPRPRPRPDPQPRP
Output: 0.698

Task: Field request: shrunken log2 fold change | item: RRIRCRPPRLPRPRPRPMSSPRP
Output: 0.0481

Task: Could you share which shrunken log2 fold change value was measured for RRIRNRPPRLPRPRPRPKPSPRP ?
Output: 0.137

Entry source: the supplement of paper PMC9112550
